Entries and their IC50 values follow.
Molecular target: human Nav1.7 (Homo sapiens, UniProt Q15858)
Construct: expressed in transfected cells; host or cells: HEK293
Sequence (Q15858 whole entry): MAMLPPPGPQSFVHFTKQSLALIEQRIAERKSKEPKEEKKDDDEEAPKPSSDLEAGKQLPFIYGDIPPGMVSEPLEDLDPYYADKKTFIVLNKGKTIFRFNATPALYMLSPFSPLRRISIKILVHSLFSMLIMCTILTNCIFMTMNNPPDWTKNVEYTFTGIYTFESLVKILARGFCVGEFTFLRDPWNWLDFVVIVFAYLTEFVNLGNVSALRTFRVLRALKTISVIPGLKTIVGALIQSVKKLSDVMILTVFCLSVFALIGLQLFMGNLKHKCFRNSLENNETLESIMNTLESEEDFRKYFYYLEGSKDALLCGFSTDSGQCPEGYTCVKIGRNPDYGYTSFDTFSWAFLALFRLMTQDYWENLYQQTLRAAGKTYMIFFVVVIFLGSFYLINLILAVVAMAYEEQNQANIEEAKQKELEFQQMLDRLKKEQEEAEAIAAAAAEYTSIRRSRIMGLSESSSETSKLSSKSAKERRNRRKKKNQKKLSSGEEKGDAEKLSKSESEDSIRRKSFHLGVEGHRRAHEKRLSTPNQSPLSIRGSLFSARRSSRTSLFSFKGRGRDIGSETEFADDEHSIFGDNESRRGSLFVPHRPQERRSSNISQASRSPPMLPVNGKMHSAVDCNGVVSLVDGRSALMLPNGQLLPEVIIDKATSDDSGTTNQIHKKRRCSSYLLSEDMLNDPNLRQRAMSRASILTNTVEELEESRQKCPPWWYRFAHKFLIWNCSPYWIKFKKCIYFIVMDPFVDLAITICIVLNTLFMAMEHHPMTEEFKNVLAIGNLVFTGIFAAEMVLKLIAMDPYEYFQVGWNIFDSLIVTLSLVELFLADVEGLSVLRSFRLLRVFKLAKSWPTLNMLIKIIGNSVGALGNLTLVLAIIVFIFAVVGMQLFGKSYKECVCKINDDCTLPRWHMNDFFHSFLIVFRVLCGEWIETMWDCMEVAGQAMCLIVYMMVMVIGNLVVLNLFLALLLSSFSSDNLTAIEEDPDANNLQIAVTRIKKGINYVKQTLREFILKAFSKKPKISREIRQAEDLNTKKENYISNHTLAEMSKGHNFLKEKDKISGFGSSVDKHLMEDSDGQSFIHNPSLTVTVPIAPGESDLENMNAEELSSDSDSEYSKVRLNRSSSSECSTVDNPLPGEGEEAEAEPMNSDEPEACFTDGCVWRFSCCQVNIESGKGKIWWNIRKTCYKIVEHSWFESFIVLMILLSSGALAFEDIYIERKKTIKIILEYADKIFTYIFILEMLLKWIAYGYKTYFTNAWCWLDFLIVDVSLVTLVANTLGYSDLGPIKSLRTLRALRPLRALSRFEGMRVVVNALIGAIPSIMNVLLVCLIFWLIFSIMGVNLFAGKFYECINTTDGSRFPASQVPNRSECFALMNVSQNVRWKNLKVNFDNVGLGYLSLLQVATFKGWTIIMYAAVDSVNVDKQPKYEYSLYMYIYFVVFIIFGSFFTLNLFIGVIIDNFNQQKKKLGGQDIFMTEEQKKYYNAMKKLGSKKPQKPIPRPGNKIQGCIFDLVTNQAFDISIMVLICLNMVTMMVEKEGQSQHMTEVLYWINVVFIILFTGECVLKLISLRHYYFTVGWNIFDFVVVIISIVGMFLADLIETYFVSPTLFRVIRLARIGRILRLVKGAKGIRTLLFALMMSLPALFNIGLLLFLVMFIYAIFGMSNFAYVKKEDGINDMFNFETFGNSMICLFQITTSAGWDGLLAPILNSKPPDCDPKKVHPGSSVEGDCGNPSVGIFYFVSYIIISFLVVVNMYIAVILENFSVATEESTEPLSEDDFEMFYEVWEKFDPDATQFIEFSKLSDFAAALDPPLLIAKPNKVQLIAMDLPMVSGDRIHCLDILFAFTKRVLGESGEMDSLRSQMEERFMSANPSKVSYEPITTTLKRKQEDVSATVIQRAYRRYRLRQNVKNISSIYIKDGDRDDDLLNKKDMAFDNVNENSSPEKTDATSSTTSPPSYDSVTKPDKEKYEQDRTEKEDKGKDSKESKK
Assay: Nav 1.7 In Vitro PatchXpress (PX) Assay
Format: cell-based
Details: HEK 293 cells stably transfected with human Nav1.7; PatchXpress whole cell voltage clamp; partially inactivated state (holding potential yielding 20 to 50% inactivation); read-out: hNav1.7 PX IC50

{"compound": "COc1ccc(-c2cc(OC)c(-n3c4c(ccc3=O)CN(S(=O)(=O)Nc3cccnn3)CC4)cc2F)cc1Cl", "output.unit": "nM", "IC50": 321}
{"compound": "COc1cc(-c2ccc(Cl)c(C)c2)c(F)cc1-n1c2c(ccc1=O)CN(S(=O)(=O)Nc1ccncn1)CC2", "output.unit": "nM", "IC50": 29.6}
{"compound": "COc1cc(-c2ccc(C)c(F)c2)c(F)cc1-n1c2c(ccc1=O)CN(S(=O)(=O)Nc1ccon1)CC2 (racemic) [Example 21-(Rac)]", "output.unit": "nM", "IC50": 91.3}
{"compound": "COc1cc(-c2cc(Cl)cc(OC(F)(F)F)c2)c(F)cc1-n1c2c(ccc1=O)CN(S(=O)(=O)Nc1cccnn1)CC2", "output.unit": "nM", "IC50": 40.5}

* * *

Target: human Nav1.7 (Homo sapiens, UniProt Q15858)
Construct: expressed in transfected cells; host or cells: HEK293
Assay: Nav 1.7 In Vitro PatchXpress (PX) Assay
Assay type: cell-based
Conditions: HEK 293 cells stably transfected with human Nav1.7; PatchXpress whole cell voltage clamp; partially inactivated state (holding potential yielding 20 to 50% inactivation); read-out: hNav1.7 PX IC50
reported.metric: IC50 (nM)

{"compound": "COc1nc(-c2cc(F)cc(Cl)c2)c(F)cc1-n1c2c(ccc1=O)CN(S(=O)(=O)Nc1ccon1)CC2 (racemic)", "reported.metric": "IC50", "output.unit": "nM", "cmp": "=", "experimental.value": 423}
{"compound": "COc1cc(-c2ccc(F)c(F)c2)c(F)cc1-n1c2c(ccc1=O)CN(S(=O)(=O)Nc1ncccn1)CC2 (racemic) [Example 28-(Rac)]", "reported.metric": "IC50", "output.unit": "nM", "cmp": "=", "experimental.value": 1680}
{"compound": "COc1cc(-c2cc(F)cc(Cl)c2)c(F)cc1-n1c2c(ccc1=O)CN(S(=O)(=O)Nc1ccon1)CC2 (single isomer, unassigned) [Example 18-P]", "reported.metric": "IC50", "output.unit": "nM", "cmp": "=", "experimental.value": 17.5}
{"compound": "COc1cc(Cl)cc(-c2cc(OC)c(-n3c4c(ccc3=O)CN(S(=O)(=O)Nc3ccon3)CC4)cc2F)c1", "reported.metric": "IC50", "output.unit": "nM", "cmp": "=", "experimental.value": 19.9}
{"compound": "COc1cc(-c2ccc(F)c(C)c2)c(F)cc1-n1c2c(ccc1=O)CN(S(=O)(=O)Nc1ncccn1)CC2 (single isomer, unassigned) [Example 29-M]", "reported.metric": "IC50", "output.unit": "nM", "cmp": ">", "experimental.value": 30000}
{"compound": "COc1cc(-c2cc(OC)c(-n3c4c(ccc3=O)CN(S(=O)(=O)Nc3cccnn3)CC4)cc2F)ccc1Cl (single isomer, unassigned) [Example 2-P]", "reported.metric": "IC50", "output.unit": "nM", "cmp": "=", "experimental.value": 259}
{"compound": "COc1cc(-c2ccc(C)c(F)c2)c(F)cc1-n1c2c(ccc1=O)CN(S(=O)(=O)Nc1ccon1)CC2 (single isomer, unassigned) [Example 21-M]", "reported.metric": "IC50", "output.unit": "nM", "cmp": "=", "experimental.value": 4940}
{"compound": "COc1cc(-c2cc(F)cc(Cl)c2)ccc1-n1c2c(ccc1=O)CN(S(=O)(=O)Nc1cccnn1)CC2 (single isomer, unassigned) [Example 8-P]", "reported.metric": "IC50", "output.unit": "nM", "cmp": "=", "experimental.value": 241}
{"compound": "COc1cc(-c2cc(F)cc(Cl)c2)c(F)cc1-n1c2c(ccc1=O)CN(S(=O)(=O)Nc1ccnc(C)n1)CC2 (single isomer, unassigned) [Example 6-P]", "reported.metric": "IC50", "output.unit": "nM", "cmp": "=", "experimental.value": 269}
{"compound": "COc1cc(-c2cccc(C3CC3)c2)c(F)cc1-n1c2c(ccc1=O)CN(S(=O)(=O)Nc1cccnn1)CC2", "reported.metric": "IC50", "output.unit": "nM", "cmp": "=", "experimental.value": 76.6}
{"compound": "COc1cc(-c2ccc(F)c(C)c2)c(F)cc1-n1c2c(ccc1=O)CN(S(=O)(=O)Nc1ccon1)CC2 (racemic) [Example 22-(Rac)]", "reported.metric": "IC50", "output.unit": "nM", "cmp": "=", "experimental.value": 255}
{"compound": "COc1cc(-c2cc(F)cc(Cl)c2)c(F)cc1-n1c2c(ccc1=O)CN(S(=O)(=O)Nc1cc(C)ncn1)CC2 (racemic) [4-(Rac)]", "reported.metric": "IC50", "output.unit": "nM", "cmp": "=", "experimental.value": 386}
